Kindly supply the reported Kd values for the records listed here.
- target.of.assay: CaM (Bos taurus)
- Construct: made in house; host or cells: E. coli BL21 (DE3)
- procedure.text: Pull-down assay with immobilized protein and LSM libraries
- Type: binding, bovine
- assay.conditions: H14 library; 1:2 stoichiometry assumed; read-out: Surface mapping KD (apparent)

Answer for every listed entry: what is its Kd? The entries follow.
1. C[C@@H](CC(=O)N[C@H]1CCCC[C@@H]1C(N)=O)NC(=O)[C@H]1CCCC[C@@H]1NC(=O)[C@H]1CCCC[C@@H]1NC(=O)C[C@H](Cc1ccc(O)cc1)NC(=O)[C@H]1CCCC[C@@H]1N [H14 YA]
2. N=C(N)NCCC[C@@H](CC(=O)N[C@H]1CCCC[C@@H]1C(=O)N[C@H]1CCCC[C@@H]1C(=O)N[C@@H](CCCCN)CC(=O)N[C@H]1CCCC[C@@H]1C(N)=O)NC(=O)[C@H]1CCCC[C@@H]1N [H14 RK]
3. NC(=O)CC[C@@H](CC(=O)N[C@H]1CCCC[C@@H]1C(=O)N[C@H]1CCCC[C@@H]1C(=O)N[C@@H](CCC(=O)O)CC(=O)N[C@H]1CCCC[C@@H]1C(N)=O)NC(=O)[C@H]1CCCC[C@@H]1N [H14 QE]
4. C[C@@H](O)[C@@H](CC(=O)N[C@H]1CCCC[C@@H]1C(N)=O)NC(=O)[C@H]1CCCC[C@@H]1NC(=O)[C@H]1CCCC[C@@H]1NC(=O)C[C@H](CO)NC(=O)[C@H]1CCCC[C@@H]1N [H14 ST]
5. NC(=O)[C@H]1CCCC[C@@H]1NC(=O)C[C@H](Cc1ccccc1)NC(=O)[C@H]1CCCC[C@@H]1NC(=O)[C@H]1CCCC[C@@H]1NC(=O)C[C@H](Cc1ccccc1)NC(=O)[C@H]1CCCC[C@@H]1N [H14 FF]
6. CC(C)[C@@H](CC(=O)N[C@H]1CCCC[C@@H]1C(N)=O)NC(=O)[C@H]1CCCC[C@@H]1NC(=O)[C@H]1CCCC[C@@H]1NC(=O)C[C@H](CC(N)=O)NC(=O)[C@H]1CCCC[C@@H]1N [H14 NV]

15 µM
22 µM
221 µM
215 µM
1.2 µM
115 µM

Answer for every listed entry: what is its Kd? The entries follow.
1. NC(=O)C[C@@H](CC(=O)N[C@H]1CCCC[C@@H]1C(N)=O)NC(=O)[C@H]1CCCC[C@@H]1NC(=O)[C@H]1CCCC[C@@H]1NC(=O)C[C@H](Cc1ccccc1)NC(=O)[C@H]1CCCC[C@@H]1N [H14 FN]
2. CC(C)C[C@@H](CC(=O)N[C@H]1CCCC[C@@H]1C(N)=O)NC(=O)[C@H]1CCCC[C@@H]1NC(=O)[C@H]1CCCC[C@@H]1NC(=O)C[C@@H](NC(=O)[C@H]1CCCC[C@@H]1N)C(C)C [H14 VL]

["90 µM", "13 µM"]

Input C[C@@H](CC(=O)N[C@H]1CCCC[C@@H]1C(N)=O)NC(=O)[C@H]1CCCC[C@@H]1NC(=O)[C@H]1CCCC[C@@H]1NC(=O)C[C@@H](NC(=O)[C@H]1CCCC[C@@H]1N)[C@@H](C)O [H14 TA] . Output Kd: 244 µM

---

- target.of.assay: S100B (Homo sapiens)
- Construct: made in house; host or cells: Escherichia coli BL21(DE3)
- procedure.text: Pull-down assay with immobilized protein and LSM libraries
- Assay type: binding
- assay.conditions: H14 library; 1:1 binding assumed; read-out: Surface mapping KD (apparent)
pKd: −log10 of the molar value.
Mark 0 (no) for pKd values under 4, and 1 (yes) for everything at or above.

CC[C@H](C)[C@@H](CC(=O)N[C@H]1CCCC[C@@H]1C(=O)N[C@H]1CCCC[C@@H]1C(=O)N[C@@H](CO)CC(=O)N[C@H]1CCCC[C@@H]1C(N)=O)NC(=O)[C@H]1CCCC[C@@H]1N [H14 IS] ... 0 (no)
N=C(N)NCCC[C@@H](CC(=O)N[C@H]1CCCC[C@@H]1C(=O)N[C@H]1CCCC[C@@H]1C(=O)N[C@H](CC(=O)N[C@H]1CCCC[C@@H]1C(N)=O)Cc1ccc(O)cc1)NC(=O)[C@H]1CCCC[C@@H]1N [H14 RY] ... 1 (yes)
CC(C)C[C@@H](CC(=O)N[C@H]1CCCC[C@@H]1C(=O)N[C@H]1CCCC[C@@H]1C(=O)N[C@H](CC(=O)N[C@H]1CCCC[C@@H]1C(N)=O)Cc1c[nH]c2ccccc12)NC(=O)[C@H]1CCCC[C@@H]1N [H14 LW] ... 1 (yes)

Dear colleague, could you confirm whether CSCC[C@@H](CC(=O)N[C@H]1CCCC[C@@H]1C(=O)N[C@H]1CCCC[C@@H]1C(=O)N[C@H](CC(=O)N[C@H]1CCCC[C@@H]1C(N)=O)Cc1ccc(O)cc1)NC(=O)[C@H]1CCCC[C@@H]1N [H14 MY] has pKd at or above 4? 0 (no)

Dear colleague, could you confirm whether NC(=O)[C@H]1CCCC[C@@H]1NC(=O)C[C@H](Cc1ccc(O)cc1)NC(=O)[C@H]1CCCC[C@@H]1NC(=O)[C@H]1CCCC[C@@H]1NC(=O)C[C@H](CO)NC(=O)[C@H]1CCCC[C@@H]1N [H14 SY] has pKd at or above 4? 0 (no)

Dear colleague, could you confirm whether NCCCC[C@@H](CC(=O)N[C@H]1CCCC[C@@H]1C(N)=O)NC(=O)[C@H]1CCCC[C@@H]1NC(=O)[C@H]1CCCC[C@@H]1NC(=O)C[C@H](Cc1c[nH]c2ccccc12)NC(=O)[C@H]1CCCC[C@@H]1N [H14 WK] has pKd at or above 4? 1 (yes)

---

- target.of.assay: Gal-1 (Homo sapiens, UniProt P09382)
- Construct: made in house; host or cells: E. coli BL21(DE3)
- Sequence (P09382 whole entry): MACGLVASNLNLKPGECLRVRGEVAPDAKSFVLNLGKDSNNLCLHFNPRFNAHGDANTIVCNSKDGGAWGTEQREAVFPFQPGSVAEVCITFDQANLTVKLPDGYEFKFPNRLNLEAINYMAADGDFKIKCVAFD
- procedure.text: Pull-down assay with immobilized protein and LSM libraries
- Type: binding
- assay.conditions: H12 library; 1:1 binding assumed; read-out: Surface mapping KD (apparent)
measured.parameter: pKd
Give bare numbers, as −log10 of the molar value.

Here are 3 compounds together with their reported answers.
CC[C@H](C)[C@@H](CC(=O)N[C@H]1CCC[C@@H]1C(=O)N[C@H]1CCC[C@@H]1C(=O)N[C@@H](CCSC)CC(=O)N[C@H]1CCC[C@@H]1C(=O)N[C@H]1CCC[C@@H]1C(N)=O)NC(=O)[C@H]1CCC[C@@H]1NC(=O)[C@H]1CCC[C@@H]1N ... 3.42
N=C(N)NCCC[C@@H](CC(=O)N[C@H]1CCC[C@@H]1C(=O)N[C@H]1CCC[C@@H]1C(N)=O)NC(=O)[C@H]1CCC[C@@H]1NC(=O)[C@H]1CCC[C@@H]1NC(=O)C[C@H](CCC(N)=O)NC(=O)[C@H]1CCC[C@@H]1NC(=O)[C@H]1CCC[C@@H]1N ... 3.37
C[C@@H](O)[C@@H](CC(=O)N[C@H]1CCC[C@@H]1C(=O)N[C@H]1CCC[C@@H]1C(N)=O)NC(=O)[C@H]1CCC[C@@H]1NC(=O)[C@H]1CCC[C@@H]1NC(=O)C[C@H](Cc1c[nH]c2ccccc12)NC(=O)[C@H]1CCC[C@@H]1NC(=O)[C@H]1CCC[C@@H]1N ... 3.35

// moving on: another record for pKd
Input C[C@@H](O)[C@@H](CC(=O)N[C@H]1CCC[C@@H]1C(=O)N[C@H]1CCC[C@@H]1C(N)=O)NC(=O)[C@H]1CCC[C@@H]1NC(=O)[C@H]1CCC[C@@H]1NC(=O)C[C@H](Cc1ccccc1)NC(=O)[C@H]1CCC[C@@H]1NC(=O)[C@H]1CCC[C@@H]1N . Output pKd: 3.60

---

- target.of.assay: S100B (Homo sapiens, UniProt P04271)
- Construct: made in house; host or cells: Escherichia coli BL21(DE3)
- Sequence (P04271 whole entry): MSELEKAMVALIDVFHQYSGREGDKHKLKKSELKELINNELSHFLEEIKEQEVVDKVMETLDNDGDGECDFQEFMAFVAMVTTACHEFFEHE
- procedure.text: Pull-down assay with immobilized protein and LSM libraries
- Type: binding
- assay.conditions: H12 library; 1:1 binding assumed; read-out: Surface mapping KD (apparent)
Kindly supply the reported pKd values for the records listed here.
Give bare numbers, as −log10 of the molar value.

CSCC[C@@H](CC(=O)N[C@H]1CCC[C@@H]1C(=O)N[C@H]1CCC[C@@H]1C(N)=O)NC(=O)[C@H]1CCC[C@@H]1NC(=O)[C@H]1CCC[C@@H]1NC(=O)C[C@H](Cc1ccccc1)NC(=O)[C@H]1CCC[C@@H]1NC(=O)[C@H]1CCC[C@@H]1N [H12 FM] ... 4.41

// moving on: another record for pKd
Input NCCCC[C@@H](CC(=O)N[C@H]1CCC[C@@H]1C(=O)N[C@H]1CCC[C@@H]1C(=O)N[C@@H](CO)CC(=O)N[C@H]1CCC[C@@H]1C(=O)N[C@H]1CCC[C@@H]1C(N)=O)NC(=O)[C@H]1CCC[C@@H]1NC(=O)[C@H]1CCC[C@@H]1N [H12 KS] . Output pKd: 3.65
